Test system: 843782-103-R-J1-PDC complex spheroid viability
Experiment summary: Anticancer human tumor 843782-103-R-J1-PDC patient-derived lung adenocarcinoma cell line growth inhibition [RAS]
Condition notes: curve of first compound; second compound 0.01 µM
Reported IC50 values for the following compounds.

C[C@@H](NC(=O)c1ncnc(N)c1Cl)c1ncc(C(=O)Nc2cc(C(F)(F)F)c(Cl)cn2)s1 + C=CC(=O)N1CCN(c2nc(OCC3CCCN3C)nc3c(F)c(-c4nc(N)cc(C)c4C(F)(F)F)c(Cl)cc23)C(C)C1    > 10000 nM
CC1(O)CCCC1n1c(=O)c(C(F)F)cc2cnc(NC3CCN(S(C)(=O)=O)CC3)nc21 (centres undefined) + C=CC(=O)N1CCN(c2nc(OCC3CCCN3C)nc3c(F)c(-c4nc(N)cc(C)c4C(F)(F)F)c(Cl)cc23)C(C)C1    152 nM
CCc1c2c(nc3ccc(O)cc13)-c1cc3c(c(=O)n1C2)COC(=O)[C@]3(O)CC + C=CC(=O)N1CCN(c2nc(OCC3CCCN3C)nc3c(F)c(-c4nc(N)cc(C)c4C(F)(F)F)c(Cl)cc23)C(C)C1    1.52 nM
CC1(C)CCC(Nc2ncc(C(F)(F)F)c(-c3c[nH]c4c(P(C)(C)=O)c(C#N)ccc34)n2)CN1 (centres undefined) + C=CC(=O)N1CCN(c2nc(OCC3CCCN3C)nc3c(F)c(-c4nc(N)cc(C)c4C(F)(F)F)c(Cl)cc23)C(C)C1    7.23 nM
Cc1nc(N2CCC3(CC2)COC(C)C3N)c(CO)nc1Sc1ccnc(N)c1Cl (centres undefined) + C=CC(=O)N1CCN(c2nc(OCC3CCCN3C)nc3c(F)c(-c4nc(N)cc(C)c4C(F)(F)F)c(Cl)cc23)C(C)C1    385 nM

// next entry
Prompt line: Given the compound CCN1CCN(Cc2ccc(Nc3ncc(F)c(-c4cc(F)c5nc(C)n(C(C)C)c5c4)n3)nc2)CC1 + C=CC(=O)N1CCN(c2nc(OCC3CCCN3C)nc3c(F)c(-c4nc(N)cc(C)c4C(F)(F)F)c(Cl)cc23)C(C)C1 , write its reported IC50.
Response line: 471 nM

###

Reported viability, T/C values for the following compounds.
System: 843782-103-R-J1-PDC complex spheroid viability
Experiment summary: Anticancer human tumor 843782-103-R-J1-PDC cell line growth inhibition [RAS];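 further: viability read after seven days of compound exposure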
Condition notes: second compound 0.3 µM; first compound 1 µM; stronger effect = lower value
Text: RAS pathway inhibitors in Combinations in Complex Spheroids A high-throughput screen of multi-cell type tumor spheroids was designed to identify active combinations of RAS pathway inhibitors and targeted small molecules. Complex spheroids include a stromal component modeled by human endothelial cells (HUVEC) and fibroblasts modeled by human mesenchymal stem cells (MSCs). […] Compounds. […] If the clinical Cmax for an agent had not been determined, the highest concentration tested was 10 microM. […]
Give the quantity in %, number only.

C=CC(=O)Nc1cc(Nc2nccc(-c3cn(C)c4ccccc34)n2)c(OC)cc1N(C)CCN(C)C + CCn1c(-c2cc(N3CCN(C)CC3)cnc2C(C)OC)c2c3cc(ccc31)-c1csc(n1)CC(NC(=O)C1CC1C)C(=O)N1CCCC(N1)C(=O)OCC(C)(C)C2    10.4

// next entry
Prompt line: Given the compound Nc1ccn(C2OC(CO)C(O)C2(F)F)c(=O)n1 (configuration not stated) + CCn1c(-c2cccnc2C(C)OC)c2c3cc(ccc31)N1CCOC(CC(NC(=O)C(C(C)C)N(C)C(=O)C3(F)CCN(C(=O)C#CC(C)(C)N(C)C)CC3)C(=O)N3CCCC(N3)C(=O)OCC(C)(C)C2)C1 , write its reported viability, T/C.
Response line: 1.46

###

Test system: 843782-103-R-J1-PDC complex spheroid viability
Experiment summary: Anticancer human tumor 843782-103-R-J1-PDC cell line growth inhibition [RAS];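 further: viability read after seven days of compound exposure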
Condition notes: second compound 0.316 µM; first compound 0.1 µM; stronger effect = lower value
Assay readout: viability, T/C (%)
Give the quantity in %, number only.

CC(C)NCC(C(=O)N1CCN(c2ncnc3c2C(C)CC3O)CC1)c1ccc(Cl)cc1 (stereo not given) + C=CC(=O)N1CCN(c2nc(OCC3CCCN3C)nc3c(F)c(-c4nc(N)cc(C)c4C(F)(F)F)c(Cl)cc23)C(C)C1    79.7
Cc1nc(N2CCC3(CC2)COC(C)C3N)c(CO)nc1Sc1ccnc(N)c1Cl (stereo not given) + C=CC(=O)N1CCN(c2nc(OCC3CCCN3C)nc3c(F)c(-c4nc(N)cc(C)c4C(F)(F)F)c(Cl)cc23)C(C)C1    67
O=C(c1ccc(F)c(F)c1Nc1ccc(I)cc1F)N1CC(O)([C@@H]2CCCCN2)C1 + C=CC(=O)N1CCN(c2nc(OCC3CCCN3C)nc3c(F)c(-c4nc(N)cc(C)c4C(F)(F)F)c(Cl)cc23)C(C)C1    51.6
O=C(c1ccc(F)c(F)c1Nc1ccc(I)cc1F)N1CC(O)([C@@H]2CCCCN2)C1 + C#Cc1c(F)ccc2cc(O)cc(-c3ncc4c(N5CC6CCC(C5)N6)nc(OCC56CCCN5CC(F)C6)nc4c3F)c12    75.5

// next entry
Prompt line: Given the molecule CC(Nc1ccc2c(c1)OCCn1cc(N3C(=O)OCC3C(F)F)nc1-2)C(N)=O (stereo not given) + C#Cc1c(F)ccc2cc(O)cc(-c3ncc4c(N5CC6CCC(C5)N6)nc(OCC56CCCN5CC(F)C6)nc4c3F)c12 , write its reported viability, T/C.
Response line: 72.9

###

System: 843782-103-R-J1-PDC complex spheroid viability
Experiment summary: Anticancer human tumor 843782-103-R-J1-PDC cell line growth inhibition [RAS];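 further: viability read after seven days of compound exposure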
Condition notes: second compound 0.00949 µM; first compound 0.1 µM; stronger effect = lower value
Reported viability, T/C values for the following compounds.

C=CC(=O)Nc1cc(Nc2nccc(-c3cn(C)c4ccccc34)n2)c(OC)cc1N(C)CCN(C)C + CCn1c(-c2cccnc2C(C)OC)c2c3cc(ccc31)N1CCOC(CC(NC(=O)C(C(C)C)N(C)C(=O)C3(F)CCN(C(=O)C#CC(C)(C)N(C)C)CC3)C(=O)N3CCCC(N3)C(=O)OCC(C)(C)C2)C1    43.9%
CC(Nc1ccc2c(c1)OCCn1cc(N3C(=O)OCC3C(F)F)nc1-2)C(N)=O (stereo not drawn) + CCn1c(-c2cccnc2C(C)OC)c2c3cc(ccc31)N1CCOC(CC(NC(=O)C(C(C)C)N(C)C(=O)C3(F)CCN(C(=O)C#CC(C)(C)N(C)C)CC3)C(=O)N3CCCC(N3)C(=O)OCC(C)(C)C2)C1    37.7%
CC(C)n1nc(-c2ccc3oc(N)nc3c2)c2c(N)ncnc21 + CCn1c(-c2cc(N3CCN(C)CC3)cnc2C(C)OC)c2c3cc(ccc31)-c1csc(n1)CC(NC(=O)C1CC1C)C(=O)N1CCCC(N1)C(=O)OCC(C)(C)C2    7.59%
CCN1CCN(Cc2ccc(Nc3ncc(F)c(-c4cc(F)c5nc(C)n(C(C)C)c5c4)n3)nc2)CC1 + CCn1c(-c2cccnc2C(C)OC)c2c3cc(ccc31)N1CCOC(CC(NC(=O)C(C(C)C)N(C)C(=O)C3(F)CCN(C(=O)C#CC(C)(C)N(C)C)CC3)C(=O)N3CCCC(N3)C(=O)OCC(C)(C)C2)C1    61.2%
CC1(O)CCCC1n1c(=O)c(C(F)F)cc2cnc(NC3CCN(S(C)(=O)=O)CC3)nc21 (stereo not drawn) + CCn1c(-c2cc(N3CCN(C)CC3)cnc2C(C)OC)c2c3cc(ccc31)-c1csc(n1)CC(NC(=O)C1CC1C)C(=O)N1CCCC(N1)C(=O)OCC(C)(C)C2    24.2%
C[C@@H](NC(=O)c1ncnc(N)c1Cl)c1ncc(C(=O)Nc2cc(C(F)(F)F)c(Cl)cn2)s1 + CCn1c(-c2cc(N3CCN(C)CC3)cnc2C(C)OC)c2c3cc(ccc31)-c1csc(n1)CC(NC(=O)C1CC1C)C(=O)N1CCCC(N1)C(=O)OCC(C)(C)C2    51.6%
CC(C)NCC(C(=O)N1CCN(c2ncnc3c2C(C)CC3O)CC1)c1ccc(Cl)cc1 (stereo not drawn) + CCn1c(-c2cccnc2C(C)OC)c2c3cc(ccc31)N1CCOC(CC(NC(=O)C(C(C)C)N(C)C(=O)C3(F)CCN(C(=O)C#CC(C)(C)N(C)C)CC3)C(=O)N3CCCC(N3)C(=O)OCC(C)(C)C2)C1    65.3%

// next entry
Prompt line: Given the compound CC(=O)OC12COC1CC(O)C1(C)C(=O)C(O)C3=C(C)C(OC(=O)C(O)C(NC(=O)OC(C)(C)C)c4ccccc4)CC(O)(C(OC(=O)c4ccccc4)C21)C3(C)C (stereo not drawn) + CCn1c(-c2cc(N3CCN(C)CC3)cnc2C(C)OC)c2c3cc(ccc31)-c1csc(n1)CC(NC(=O)C1CC1C)C(=O)N1CCCC(N1)C(=O)OCC(C)(C)C2 , write its reported viability, T/C.
Response line: 4.97%
